Reported Selectivity Analysis hCA II/IX values follow for various compounds
Biological target: hCA IX (Homo sapiens)
Experiment: hCA IX inhibition, stopped-flow assay
Type: biochemical
Conditions: selectivity index (SI), ratio of Ki hCA II to Ki hCA IX
Please reply with the number alone, leaving off any unit.

| Compound | Selectivity Analysis hCA II/IX |
| --- | --- |
| CC(=NNC(=O)CSc1nc2ccccc2c(=O)n1CCc1ccc(S(N)(=O)=O)cc1)c1ccc(C)cc1 [Compound 25] | 2.87 |
| NS(=O)(=O)c1ccc(CCn2c(SCC(=O)NN=Cc3ccc(Cl)c(Cl)c3)nc3ccccc3c2=O)cc1 [Compound 8] | 9.33 |

Now turn to the next compound.
Sample CC(=NNC(=O)CSc1nc2ccccc2c(=O)n1CCc1ccc(S(N)(=O)=O)cc1)c1ccc(Br)cc1 [Compound 20] ; Selectivity Analysis hCA II/IX observed: 7.01

====

Recorded Ki values for a group of compounds are listed next.
Target: hCA I (Homo sapiens, UniProt P00915)
Sequence (P00915 whole entry): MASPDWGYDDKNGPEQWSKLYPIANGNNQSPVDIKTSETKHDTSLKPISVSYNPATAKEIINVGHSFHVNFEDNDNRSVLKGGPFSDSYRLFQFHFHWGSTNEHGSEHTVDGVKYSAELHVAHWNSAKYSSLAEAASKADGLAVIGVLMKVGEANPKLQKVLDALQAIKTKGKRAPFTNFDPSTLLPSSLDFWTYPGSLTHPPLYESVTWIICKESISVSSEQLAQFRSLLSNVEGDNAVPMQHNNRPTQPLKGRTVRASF
Test: hCA I inhibition, stopped-flow assay
Type: biochemical
Settings: stopped-flow technique; mean from three different assays, errors ±5–10%
Answer format: numeric, nM implied, no suffix.

| Line Notation | Result Units | Ki |
| --- | --- | --- |
| NNC(=O)CSc1nc2ccccc2c(=O)n1CCc1ccc(S(N)(=O)=O)cc1 | nM | 87.6 |

Case `CC(=NNC(=O)CSc1nc2ccccc2c(=O)n1CCc1ccc(S(N)(=O)=O)cc1)c1ccccc1` , hCA I (Homo sapiens, UniProt P00915), Ki recorded as 124

====

Target: hCA I (Homo sapiens, UniProt P00915)
Experiment: hCA I inhibition, stopped-flow assay
Type: biochemical
Conditions: stopped-flow technique; mean from three different assays, errors ±5–10%
Parameter Measured: Ki (nM)
Express the result in nM but write the number alone.

Known Ki results, listed for orientation:
| Line Notation | Result Units | Quantitative Result |
| --- | --- | --- |
| CN(C)c1ccc(C=NNC(=O)CSc2nc3ccccc3c(=O)n2CCc2ccc(S(N)(=O)=O)cc2)cc1 | nM | 582 |
| NS(=O)(=O)c1ccc(CCn2c(SCC(=O)N/N=C/c3ccccc3)nc3ccccc3c2=O)cc1 | nM | 152 |
| NS(=O)(=O)c1ccc(CCn2c(SCC(=O)NN=Cc3ccccc3[N+](=O)[O-])nc3ccccc3c2=O)cc1 | nM | 992 |
| CC(=NNC(=O)CSc1nc2ccccc2c(=O)n1CCc1ccc(S(N)(=O)=O)cc1)c1ccc(Cl)cc1 | nM | 563 |

// assay hCA I (Homo sapiens, UniProt P00915), entry `CC(=NNC(=O)CSc1nc2ccccc2c(=O)n1CCc1ccc(S(N)(=O)=O)cc1)c1ccccc1Cl` , Ki value = 1140

Response field Ki (hCA I (Homo sapiens, UniProt P00915)) for item `CC(=NNC(=O)CSc1nc2ccccc2c(=O)n1CCc1ccc(S(N)(=O)=O)cc1)c1cccc(Cl)c1` : 867

The reported Ki value, hCA I (Homo sapiens, UniProt P00915), for `NS(=O)(=O)c1ccc(CCn2c(SCC(=O)NN=Cc3ccc([N+](=O)[O-])cc3)nc3ccccc3c2=O)cc1` reads 635
